Assay: Viability qHTS for spleen associated tyrosine kinase inhibitor (SYKi) drug resistant MV4-11 cells (AID 1963824); note: nearly all actives have a fitted effect of over 35% in size
Conditions: SYKi-resistant MV4-11 viability, CellTiter-Glo, 72 h; series mostly up to 45 µM
Records with an inconclusive call do not appear. The source made the active and inactive calls. Calls come from the whole dose curve; as a rule, active = well fitted cell-killing curve with a large enough effect; inconclusive = small, poorly fitted or top-dose-only effect, or effect the other way; inactive = no such curve, though single readings can be large or run the other way.
Classes to choose from: TRUE (active), FALSE (inactive)

Example entries and their recorded answers appear below.
CCC(C)C(=O)O[C@H]1[C@H](O)[C@@]2(COC(C)=O)C(CC1(C)C)C1=CCC3[C@@]4(C)CC[C@H](O[C@@H]5O[C@H](C(=O)O)[C@@H](O)[C@H](O)[C@H]5O)[C@@](C)(CO)C4CC[C@@]3(C)[C@]1(C)C[C@@H]2O (stereo partly drawn)	TRUE
Cc1ccc(NS(=O)(=O)c2cc3c(cc2F)NC(=O)CC3)cc1Cl	TRUE
CCC(C)C(=O)OC1CC(O)C23C4OCC5(C(O)CC2C1(C)C(O)O4)C3C(=O)CC1(C)C(c2ccoc2)CC2OC215 (stereo not drawn)	TRUE

From here, focus on the item given below.
Any idea what this test logged for CN(C)CCCOc1ccc(-c2ccc3ncc4c(c3c2)n(C2CCOCC2)c(=O)n4C)cn1 ?
TRUE
